Molecular target: hCRTH2 (Homo sapiens)
Construct: expressed in transfected cells; host or cells: HEK (human embryonic kidney) cells expressing hCRTH2; membrane preparation
Assay: Radioligand binding assay ([3H]PGD2 competition, HEK-hCRTH2 membranes)
Details: [3H]PGD2 competition, Table B
Outcome measure: Ki

Consider the reported Ki for these compounds:
Supply Ki measured with hCRTH2 (Homo sapiens) for COc1ccc(C2CN(C(=O)c3ccc4nc(-c5ccccc5)c(CCCCC(=O)O)nc4c3)C2)cc1 . 0.1 to 2 nM

Supply Ki measured with hCRTH2 (Homo sapiens) for O=C(O)CCCCc1nc2cc(C(=O)N3CCC(n4cncn4)CC3)ccc2nc1-c1ccc(Cl)cc1 . 2.1 to 20 nM

Supply Ki measured with hCRTH2 (Homo sapiens) for O=C(O)CCCCc1nc2cc(C(=O)N3CCC4(CC3)Cc3ccccc3C(=O)N4)ccc2nc1-c1ccccc1 . 2.1 to 20 nM

Supply Ki measured with hCRTH2 (Homo sapiens) for O=C(O)CCCCc1nc2cc(C(=O)N[C@H]3COc4ccccc43)ccc2nc1-c1ccccc1 . 2.1 to 20 nM

Supply Ki measured with hCRTH2 (Homo sapiens) for O=C(O)CCCCc1nc2cc(C(=O)N3CCN(Cc4ccccc4)CC3)ccc2nc1-c1ccc(Cl)cc1 . 2.1 to 20 nM

Supply Ki measured with hCRTH2 (Homo sapiens) for CC1(C)CCC(NC(=O)c2ccc3nc(-c4ccc(Cl)cc4)c(CCCCC(=O)O)nc3c2)c2ccccc21 (stereo not shown) . 2.1 to 20 nM

Turning to the following compound.
Supply Ki measured with hCRTH2 (Homo sapiens) for Cc1nonc1C1CCCN1C(=O)c1ccc2nc(-c3ccc(Cl)cc3)c(CCCCC(=O)O)nc2c1 (stereo not shown) . 2.1 to 20 nM

* * *

Ki by entry:
Target: hCRTH2 (Homo sapiens, UniProt Q9Y5Y4)
Construct: expressed in transfected cells; host or cells: HEK (human embryonic kidney) cells expressing hCRTH2; membrane preparation
Sequence (Q9Y5Y4 whole entry): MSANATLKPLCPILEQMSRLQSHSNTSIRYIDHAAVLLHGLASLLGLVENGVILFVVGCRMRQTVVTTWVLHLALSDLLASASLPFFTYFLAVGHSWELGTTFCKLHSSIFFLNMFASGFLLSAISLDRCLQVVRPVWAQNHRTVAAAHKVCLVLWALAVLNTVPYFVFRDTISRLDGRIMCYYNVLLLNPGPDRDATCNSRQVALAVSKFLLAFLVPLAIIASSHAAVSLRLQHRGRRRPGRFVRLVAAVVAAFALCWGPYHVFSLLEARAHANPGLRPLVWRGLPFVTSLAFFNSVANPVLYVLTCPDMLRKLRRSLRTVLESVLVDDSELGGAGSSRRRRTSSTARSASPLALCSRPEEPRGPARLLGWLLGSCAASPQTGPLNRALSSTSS
Experiment: Radioligand binding assay ([3H]PGD2 competition, HEK-hCRTH2 membranes)
Conditions: [3H]PGD2 competition, Table B

Consider the reported Ki for these compounds:
Supply Ki measured with hCRTH2 (Homo sapiens, UniProt Q9Y5Y4) for O=C(O)Cc1cccc(CCCc2nc3cc(C(=O)N4CCN(c5ccccc5)CC4)ccc3nc2-c2ccc(F)cc2)c1 . 20.1 to 200 nM

Supply Ki measured with hCRTH2 (Homo sapiens, UniProt Q9Y5Y4) for O=C(O)CCCCc1nc2cc(C(=O)N3CCC4(CC3)OCc3ccccc34)ccc2nc1-c1ccc(Cl)cc1 . 0.1 to 2 nM

Supply Ki measured with hCRTH2 (Homo sapiens, UniProt Q9Y5Y4) for CCc1nnc2n1CCN(C(=O)c1ccc3nc(-c4ccc(Cl)cc4)c(CCCCC(=O)O)nc3c1)C2 . 20.1 to 200 nM

Supply Ki measured with hCRTH2 (Homo sapiens, UniProt Q9Y5Y4) for C[C@@H](NC(=O)c1cc2nc(CCCCC(=O)O)c(-c3ccccc3)nc2cc1F)c1ccc(F)cc1 . 2.1 to 20 nM

Supply Ki measured with hCRTH2 (Homo sapiens, UniProt Q9Y5Y4) for CC1(C)CC(NC(=O)c2ccc3nc(-c4ccccc4)c(CCCCC(=O)O)nc3c2)c2ccccc2O1 (stereo not shown) . 2.1 to 20 nM

Supply Ki measured with hCRTH2 (Homo sapiens, UniProt Q9Y5Y4) for C[C@H]1CN(c2ccc(F)cc2)CCN1C(=O)c1ccc2nc(-c3ccccc3)c(CCCCC(=O)O)nc2c1 . 2.1 to 20 nM

***
Supply Ki measured with hCRTH2 (Homo sapiens, UniProt Q9Y5Y4) for O=C(O)Cc1cccc(CCCc2nc3cc(C(=O)N[C@@H]4CCCc5ccccc54)ccc3nc2-c2ccc(F)cc2)c1 . 201 to 700 nM
